Values were extracted from patent US20240391958A1.

- procedure text: Cytotoxicity
- Format: cell-based
- details: human, HeLa cervix carcinoma cells (DSM ACC 57); HeLa, converted value
Where a SMILES comes first, the peptide text is derived from it. Bridges are numbered along the chain shown (N, C = ends). [ ]: non-standard residue; d: D form. The star is where a group is joined. X1 = CCCCCCCCCCCC[C@@H](O)[C@@H](O)CC(=O)*; Asp(3S-OH) = N[C@H](C(=O)O)[C@H](O)C(=O)O; Thr(4-Cl) = N[C@H](C(=O)O)[C@H](O)CCl; aThr = C[C@H](O)[C@H](N)C(=O)O; d(hSer) = N[C@H](CCO)C(=O)O; dDab = NCC[C@@H](N)C(=O)O; Dab = NCC[C@H](N)C(=O)O; Dhb = C/C=C(\N)C(=O)O
property: CC50
Be sure to follow the number with its unit.

query: // returns reported CC50 for input C/C=C1\NC(=O)[C@H]([C@H](C)O)NC(=O)[C@H](CCN)NC(=O)[C@@H](CCO)NC(=O)CNC(=O)[C@@H](CCN)NC(=O)[C@@H](NC(=O)C[C@H](O)[C@H](O)CCCCCCCCCCCC)COC(=O)[C@H]([C@H](O)CCl)NC(=O)[C@H]([C@H](O)C(=O)O)NC1=O [Keanumycin A, keanumycin A] (X1-S[dDab]G[d(hSer)][Dab][aThr][Dhb][Asp(3S-OH)][Thr(4-Cl)]; ester 1-C)
result: 30 µM
